Target: unlabeled human VEGF (ELISA coat) (human, UniProt P15692-4 27-191, limits assumed)
Sequence (P15692 other isoform, or with tags, fused parts or gaps limits assumed): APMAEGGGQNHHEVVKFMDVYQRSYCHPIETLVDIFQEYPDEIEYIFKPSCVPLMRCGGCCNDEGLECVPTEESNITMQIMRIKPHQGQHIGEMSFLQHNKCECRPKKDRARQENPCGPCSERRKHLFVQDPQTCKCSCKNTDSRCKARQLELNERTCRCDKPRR
Test: ELISA overnight, EC50 WT/EC50 mutant
Record form. Attribute: ELISA o/n binding. Fill in for each entry.
State just the number; it will be interpreted in fold.

Which ELISA o/n binding reading was recorded for the binder T30 W (anti-VEGF IgG) (antibody, V domains shown, copies: 2 + 2) VH: EVQLVESGGGLVQPGGSLRLSCAASGYTFWNYGMNWVRQAPGKGLEWVGWINTYTGEPTYAADFKRRFTFSLDTSKSTAYLQMNSLRAEDTAVYYCAKYPHYYGSSHWYFDVWGQGTLVTVSS VL: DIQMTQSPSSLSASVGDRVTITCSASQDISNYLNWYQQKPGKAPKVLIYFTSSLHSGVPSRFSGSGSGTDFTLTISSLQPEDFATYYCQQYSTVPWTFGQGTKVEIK ? 4.5

Which ELISA o/n binding reading was recorded for the binder T30 N (anti-VEGF IgG) (antibody, V domains shown, copies: 2 + 2) VH: EVQLVESGGGLVQPGGSLRLSCAASGYTFNNYGMNWVRQAPGKGLEWVGWINTYTGEPTYAADFKRRFTFSLDTSKSTAYLQMNSLRAEDTAVYYCAKYPHYYGSSHWYFDVWGQGTLVTVSS VL: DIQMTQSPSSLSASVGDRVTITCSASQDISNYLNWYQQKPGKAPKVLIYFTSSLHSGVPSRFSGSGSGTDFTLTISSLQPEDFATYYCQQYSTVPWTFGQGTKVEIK ? 4
